System: CD2F1 mice, L1210 leukemia ip, survival T/C
assay-method-text: NCI In Vivo Anticancer Drug Screen. Data for tumor model L1210 Leukemia (intraperitoneal) in CD2F1 (CDF1) mice
test-settings: endpoint: mean survival time; dose: 25.0 mg/kg/injection; schedule: Q01DX001 (ip); vehicle: saline; higher = longer survival
Toxic doses and inconclusive results are not listed.

{"compound": "CN(C)c1ccc(N2C(N)=NC(N)=NC2(C)C)cc1", "T/C": "101 % of control"}
{"compound": "CC1(C)CC(NC2=NCCO2)CC(C)(C)N1", "T/C": "90 % of control"}
{"compound": "C=C1C(=O)OC2CCCCC3OC3C12 (configuration not stated)", "T/C": "108 % of control"}
{"compound": "CC1(C)SC2C(NC(=O)Cc3ccccc3)C(=O)N2C1C(=O)O (configuration not stated)", "T/C": "97 % of control"}
{"compound": "O=C1C=C(O)c2ccccc2C1=O", "T/C": "106 % of control"}
{"compound": "CS(=O)(=O)OCCCCOS(C)(=O)=O", "T/C": "102 % of control"}
{"compound": "Cc1cc(=O)n2cc(Br)ccc2n1", "T/C": "107 % of control"}

###

Test system: CD2F1 mice, L1210 leukemia ip, survival T/C
assay-method-text: NCI In Vivo Anticancer Drug Screen. Data for tumor model L1210 Leukemia (intraperitoneal) in CD2F1 (CDF1) mice
test-settings: endpoint: mean survival time; dose: 100.0 mg/kg/injection; schedule: Q01DX009 (ip); vehicle: saline; higher = longer survival
Toxic doses and inconclusive results are not listed. Residues, ends and D or L forms follow the SMILES beside them. *: point of attachment. Trt = c1ccc(C(c2ccccc2)(c2ccccc2)*)cc1
The entries below are paired with their reported T/C.

{"compound": "O=Cc1ccc(O)c(O)c1", "experimental-target": "CD2F1 mice, L1210 leukemia ip, survival T/C", "T/C": "107 % of control"}
{"compound": "C=CC[As](=O)(O)CCC", "experimental-target": "CD2F1 mice, L1210 leukemia ip, survival T/C", "T/C": "97 % of control"}
{"compound": "NC(CSC(c1ccccc1)(c1ccccc1)c1cccc2ccccc12)C(=O)O (stereo not given)", "experimental-target": "CD2F1 mice, L1210 leukemia ip, survival T/C", "T/C": "110 % of control"}
{"compound": "CCOC(=O)CNC(=O)NC", "experimental-target": "CD2F1 mice, L1210 leukemia ip, survival T/C", "T/C": "100 % of control"}
{"compound": "Cc1ccc(C(=O)c2ccc(C)cc2)cc1", "experimental-target": "CD2F1 mice, L1210 leukemia ip, survival T/C", "T/C": "90 % of control"}
{"compound": "CN1CCCN(C)C1c1ccccc1", "experimental-target": "CD2F1 mice, L1210 leukemia ip, survival T/C", "T/C": "89 % of control"}
{"compound": "N#C[C@H](OC1OC(COC2OC(CO)C(O)C(O)C2O)C(O)C(O)C1O)c1ccccc1 (stereo not given in full)", "experimental-target": "CD2F1 mice, L1210 leukemia ip, survival T/C", "T/C": "101 % of control"}
{"compound": "CN(Cc1ccccc1)C1CCC(C(=O)O)CC1 (stereo not given)", "experimental-target": "CD2F1 mice, L1210 leukemia ip, survival T/C", "T/C": "107 % of control"}
{"compound": "N=C(N)SC1c2ccccc2-c2ccc(N)cc21 (stereo not given)", "experimental-target": "CD2F1 mice, L1210 leukemia ip, survival T/C", "T/C": "109 % of control"}
{"compound": "c1ccc2nc(CCc3ccc4ccccc4n3)ccc2c1", "experimental-target": "CD2F1 mice, L1210 leukemia ip, survival T/C", "T/C": "100 % of control"}
{"compound": "CCN(CC)CCNc1nc(-c2cc(C(F)(F)F)cc(C(F)(F)F)c2)nc(C(Cl)(Cl)Cl)n1", "experimental-target": "CD2F1 mice, L1210 leukemia ip, survival T/C", "T/C": "93 % of control"}
{"compound": "O=c1[nH]c2ccc(Br)cc2c(=O)o1", "experimental-target": "CD2F1 mice, L1210 leukemia ip, survival T/C", "T/C": "104 % of control"}
{"compound": "CCSC(C)C", "experimental-target": "CD2F1 mice, L1210 leukemia ip, survival T/C", "T/C": "101 % of control"}
{"compound": "O=[N+]([O-])c1ccc2c(N=Nc3c(O)ccc4ccccc34)c(O)cc(S(=O)(=O)O)c2c1", "experimental-target": "CD2F1 mice, L1210 leukemia ip, survival T/C", "T/C": "100 % of control"}
{"compound": "COC(=O)C(CC(C)C)NC(=O)C(N)CSC(c1ccccc1)(c1ccccc1)c1ccccc1 (stereo not given) (H-Cys(Trt)-Leu-OMe; configuration not given here)", "experimental-target": "CD2F1 mice, L1210 leukemia ip, survival T/C", "T/C": "108 % of control"}
{"compound": "COC(=O)C1C2CCC(C2)C1C(=O)O (stereo not given)", "experimental-target": "CD2F1 mice, L1210 leukemia ip, survival T/C", "T/C": "96 % of control"}
{"compound": "O=S(=O)(O)c1ccccc1O", "experimental-target": "CD2F1 mice, L1210 leukemia ip, survival T/C", "T/C": "101 % of control"}
{"compound": "CC(C)c1ccc(C(O)C2CC2)cc1 (stereo not given)", "experimental-target": "CD2F1 mice, L1210 leukemia ip, survival T/C", "T/C": "100 % of control"}
{"compound": "CC(S)CN (stereo not given)", "experimental-target": "CD2F1 mice, L1210 leukemia ip, survival T/C", "T/C": "96 % of control"}
{"compound": "CC(=O)NCCCCCCNC(C)=O", "experimental-target": "CD2F1 mice, L1210 leukemia ip, survival T/C", "T/C": "100 % of control"}
